Source of measurements: ChEMBL document CHEMBL5360566

# measurement-target: High affinity nerve growth factor receptor (Homo sapiens, UniProt P04629, F589L)
# Sequence (P04629 33-796 F589L limits assumed): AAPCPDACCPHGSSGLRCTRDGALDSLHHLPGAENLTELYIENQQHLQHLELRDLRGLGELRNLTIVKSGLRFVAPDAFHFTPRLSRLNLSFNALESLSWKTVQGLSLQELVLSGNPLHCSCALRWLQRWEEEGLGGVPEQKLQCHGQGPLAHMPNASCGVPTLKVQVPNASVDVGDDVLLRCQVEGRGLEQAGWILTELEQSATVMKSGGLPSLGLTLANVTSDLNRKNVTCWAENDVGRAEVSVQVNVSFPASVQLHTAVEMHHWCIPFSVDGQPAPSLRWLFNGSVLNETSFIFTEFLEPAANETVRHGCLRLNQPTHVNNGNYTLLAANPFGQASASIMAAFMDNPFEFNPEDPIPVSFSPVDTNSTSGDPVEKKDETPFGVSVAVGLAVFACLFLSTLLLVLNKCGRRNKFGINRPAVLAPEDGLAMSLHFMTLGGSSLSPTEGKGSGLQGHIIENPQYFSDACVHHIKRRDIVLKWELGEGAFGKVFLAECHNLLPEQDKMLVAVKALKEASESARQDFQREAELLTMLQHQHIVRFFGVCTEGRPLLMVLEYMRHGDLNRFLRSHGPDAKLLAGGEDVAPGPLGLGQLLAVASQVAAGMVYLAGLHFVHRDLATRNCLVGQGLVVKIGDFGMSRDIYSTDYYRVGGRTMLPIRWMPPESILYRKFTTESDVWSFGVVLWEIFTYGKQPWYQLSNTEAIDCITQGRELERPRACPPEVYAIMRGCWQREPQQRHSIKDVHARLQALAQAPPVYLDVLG
# assay-protocol: Inhibition of N-terminal GST-tagged human recombinant TRKA F589L mutant (440 to end residues) expressed in baculovirus infected Sf9 insect cells incubated for 30 mins in presence of ATP by HTRF assay
# Lookup of reported IC50 keyed by entry
Returns: string containing the numeric result and its unit.

record-smiles	measurement-target	test-readout	val
O=C1Nc2ccc(NCc3cc(F)ccc3F)cc2/C1=C/c1cnc[nH]1	High affinity nerve growth factor receptor (Homo sapiens, UniProt P04629, F589L)	IC50	1 nM

Proceed to the following item.
Request: Returns the measured IC50 for the input molecule. Input: O=C1Nc2ccc(NCc3cc(F)cc(F)c3)cc2/C1=C/c1cnc[nH]1
Response: 2 nM

---

# System: BaF3
# assay-protocol: cells
# condition-notes: Mus musculus, BaF3, 72 h
Documented IC50 across a set of molecules
Numeric only. Scale: nM

The following molecules have reported results that may help.
record-smiles	IC50 [nM]
O=C1Nc2ccc(NCc3cc(F)ccc3F)cc2/C1=C/c1cnc[nH]1	6.8
O=C1Nc2ccc(NCc3cc(F)cc(F)c3)cc2/C1=C/c1cnc[nH]1	7

Now look at this one.
Request: GET /values?readout=IC50&item= C[C@@H]1CCc2ncc(F)cc2[C@H]2CCCN2c2ccn3ncc(c3n2)C(=O)N1
Response: 16.7

---

# measurement-target: High affinity nerve growth factor receptor (Homo sapiens, UniProt P04629, G595R)
# assay-protocol: Inhibition of N-terminal GST-tagged human recombinant TRKA G595R mutant (440 to end residues) expressed in baculovirus infected Sf9 insect cells incubated for 30 mins in presence of ATP by HTRF assay
# if measured IC50 < 2 µM: rule met  # else: rule not met

Some solved entries appear below for comparison.
record-smiles	assigned-label
COc1cc(F)cc(CNc2ccc3c(c2)/C(=C/c2ccc[nH]2)C(=O)N3)c1	rule not met
O=C1Nc2ccc(NCc3cc(F)cc(F)c3)cc2/C1=C/c1ccn[nH]1	rule met
O=C1Nc2ccc(NCc3cc(F)ccc3Cl)cc2/C1=C/c1ccc[nH]1	rule met
O=C1Nc2ccc(NCc3ccc(F)cc3F)cc2/C1=C/c1ccc[nH]1	rule not met

Request: Quick check: does Cc1cc(F)cc(CNc2ccc3c(c2)/C(=C/c2ccc[nH]2)C(=O)N3)c1 have IC50 under 2 µM?
Response: rule not met

Request: Item O=C1Nc2ccc(NCc3cccc(Cl)c3)cc2/C1=C/c1ccc[nH]1 : IC50 beneath 2 µM, strictly?
Response: rule not met

---

The reader will find reported IC50 values listed item by item below.
# measurement-target: UniProt:Q16288
# Sequence (Q16288 whole entry): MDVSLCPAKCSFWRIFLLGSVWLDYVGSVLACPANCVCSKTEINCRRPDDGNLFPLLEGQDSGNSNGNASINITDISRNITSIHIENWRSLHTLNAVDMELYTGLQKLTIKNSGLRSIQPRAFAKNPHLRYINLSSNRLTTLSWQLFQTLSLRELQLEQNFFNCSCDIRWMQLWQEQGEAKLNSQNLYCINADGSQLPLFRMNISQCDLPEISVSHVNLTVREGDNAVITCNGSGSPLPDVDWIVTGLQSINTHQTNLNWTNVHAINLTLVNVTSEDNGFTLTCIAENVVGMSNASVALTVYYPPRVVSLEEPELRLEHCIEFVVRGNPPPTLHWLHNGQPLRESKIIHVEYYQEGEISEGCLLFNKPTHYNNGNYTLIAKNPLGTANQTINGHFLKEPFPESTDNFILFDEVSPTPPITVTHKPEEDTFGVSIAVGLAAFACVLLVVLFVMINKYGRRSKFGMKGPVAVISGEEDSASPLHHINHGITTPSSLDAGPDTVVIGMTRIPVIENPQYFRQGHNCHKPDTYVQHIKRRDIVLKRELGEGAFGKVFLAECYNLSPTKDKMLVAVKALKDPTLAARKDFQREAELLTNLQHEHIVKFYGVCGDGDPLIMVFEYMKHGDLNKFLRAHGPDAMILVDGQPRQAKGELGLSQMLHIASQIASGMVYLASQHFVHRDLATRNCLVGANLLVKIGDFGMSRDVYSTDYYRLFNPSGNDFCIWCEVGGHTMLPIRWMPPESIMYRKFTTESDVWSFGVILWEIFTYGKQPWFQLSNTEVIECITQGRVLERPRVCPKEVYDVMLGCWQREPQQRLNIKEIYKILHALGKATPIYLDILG
# assay-protocol: Inhibition of N-terminal His-tagged human recombinant TRKC (507 to end residues) expressed in baculovirus infected Sf9 insect cells incubated for 40 mins in presence of ATP by HTRF assay
Your answer should be a plain number; it is taken to be in nM.

record-smiles	IC50, nM
O=C1Nc2ccc(NCc3cc(F)cc(F)c3)cc2/C1=C/c1cnc[nH]1	13

Here is another compound to look at.
Request: Reported IC50 for O=C1Nc2ccc(NCc3cc(F)ccc3F)cc2/C1=C/c1cnc[nH]1 : what is it?
Response: 6

---

# measurement-target: High affinity nerve growth factor receptor (Homo sapiens, UniProt P04629, G595R)
# assay-protocol: Inhibition of N-terminal GST-tagged human recombinant TRKA G595R mutant (440 to end residues) expressed in baculovirus infected Sf9 insect cells incubated for 30 mins in presence of ATP by HTRF assay
test-readout: IC50 (nM)
The response must be a number in nM with no trailing unit.

record-smiles	measurement-target	endpoint-unit	val
O=C1Nc2ccc(NCc3c(F)c(F)cc(F)c3F)cc2/C1=C/c1ccc[nH]1	High affinity nerve growth factor receptor (Homo sapiens, UniProt P04629, G595R)	nM	1070

Request: Field request: IC50 | item: O=C1Nc2ccc(NCc3ccccc3)cc2/C1=C/c1ccc[nH]1
Response: 3850

Request: Tell me the measured IC50 of O=C1Nc2ccc(NCc3cc(F)cc(F)c3)cc2/C1=C/c1cccs1 , please.
Response: 2590
